tested on: Pichia kudriavzevii; assay: Antifungal activity against Candida krusei ATCC 6258; type: functional
metric: MIC (µg/mL)
The figure you give is taken to be in µg/mL; do not add the unit.

Completed entries (count: 2):
given_smiles	MIC, µg/mL
CC(C)=CCC/C(C)=C/CC/C(C)=C/CC/C(C)=C/C[n+]1cn(C)c2nc[nH]/c(=N\OCc3ccccc3)c21	1
CC(C)=CCC/C(C)=C/CC/C(C)=C/CC/C(C)=C/C[n+]1cn(C)c2nc[nH]/c(=N\OC(C)(C)C)c21	2

API: the following record is the query input.
Entry CC(C)=CCC/C(C)=C/CC/C(C)=C/CC/C(C)=C/Cn1cnc2c1c(=N)ncn2C , MIC reported as 2
